From: paper PMC9145193

- assay target: AChE enzyme from electrophorus electricus (eeAChE) (Electrophorus electricus, UniProt O42275)
- Sequence (O42275 24-633): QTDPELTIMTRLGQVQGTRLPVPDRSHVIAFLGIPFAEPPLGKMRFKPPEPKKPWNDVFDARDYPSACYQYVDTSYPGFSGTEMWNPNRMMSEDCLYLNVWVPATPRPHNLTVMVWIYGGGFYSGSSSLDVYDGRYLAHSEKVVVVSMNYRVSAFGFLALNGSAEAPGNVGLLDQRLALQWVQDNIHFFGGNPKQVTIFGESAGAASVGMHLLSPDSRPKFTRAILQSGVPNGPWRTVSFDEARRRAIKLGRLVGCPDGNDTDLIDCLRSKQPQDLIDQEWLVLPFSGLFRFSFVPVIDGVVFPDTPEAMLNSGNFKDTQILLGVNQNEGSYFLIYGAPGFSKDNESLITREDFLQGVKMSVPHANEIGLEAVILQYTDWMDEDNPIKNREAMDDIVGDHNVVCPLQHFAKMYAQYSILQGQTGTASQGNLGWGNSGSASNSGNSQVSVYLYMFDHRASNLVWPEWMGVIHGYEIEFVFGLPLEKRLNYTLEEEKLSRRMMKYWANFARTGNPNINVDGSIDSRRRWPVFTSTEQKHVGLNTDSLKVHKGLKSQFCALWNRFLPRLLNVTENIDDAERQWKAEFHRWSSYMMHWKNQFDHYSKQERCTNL
parameter: IC50 (nM)
Give a bare numeral; the unit nM is implied.

Request: Please list IC50 recorded for the molecule COc1cc2c(cc1OC)C(=O)/C(=C/c1cc[n+](Cc3ccccc3Br)cc1C(N)=O)OC2 [13h]
Result: 21.7

Request: Read the entry COc1cc2c(cc1OC)C(=O)/C(=C/c1cc[n+](Cc3ccccc3F)cc1C(N)=O)OC2.[Br-] [13b] and write its reported IC50.
Result: 3.54

Request: Return IC50 for the following molecule: COc1cc2c(cc1OC)C(=O)/C(=C/c1cc[n+](Cc3cccc(F)c3)cc1C(C)=O)OC2 [10c]
Result: 4.03

Request: Return the recorded IC50 value; entry: COc1cc2c(cc1OC)C(=O)/C(=C/c1cc[n+](Cc3ccccc3C)cc1C(C)=O)OC2 [10k]
Result: 4.8

Request: Provide only the value of recorded IC50 for COc1cc2c(cc1OC)C(=O)/C(=C/c1cc[n+](Cc3ccc(F)cc3)cc1C(N)=O)OC2 [13d]
Result: 8.25

Request: Give the reported value of IC50 for this record: COc1cc2c(cc1OC)C(=O)/C(=C/c1cc[n+](Cc3ccc(C(F)(F)F)cc3)cc1C(N)=O)OC2 [13p]
Result: 441

Request: Quick one: give measured IC50 for COc1cc2c(cc1OC)C(=O)/C(=C/c1cc[n+](Cc3ccccc3C(F)(F)F)cc1C(C)=O)OC2 [10q]
Result: 18.9

Request: Hello, please tell me recorded IC50 for this one: COc1cc2c(cc1OC)C(=O)/C(=C/c1cc[n+](Cc3ccc(Cl)cc3)cc1C(C)=O)OC2 [10g]
Result: 67.3

Request: Answer with reported IC50 of COc1cc2c(cc1OC)C(=O)/C(=C/c1cc[n+](Cc3ccccc3[N+](=O)[O-])cc1C(C)=O)OC2 [10n]
Result: 13.6

Request: Provide only the value of recorded IC50 for COc1cc2c(cc1OC)C(=O)/C(=C/c1cc[n+](Cc3ccc(C)cc3)cc1C(N)=O)OC2 [13m]
Result: 42.5

Request: Identify IC50 associated with the molecule COc1cc2c(cc1OC)C(=O)/C(=C/c1cc[n+](Cc3ccc(F)cc3)cc1C(C)=O)OC2 [10d]
Result: 7.69

Request: Give IC50 for the following molecule: COc1cc2c(cc1OC)C(=O)/C(=C/c1cc[n+](Cc3ccccc3C(F)(F)F)cc1C(N)=O)OC2 [13n]
Result: 30.7

Request: Specify reported IC50 for the molecule shown: COc1cc2c(cc1OC)C(=O)/C(=C/c1cc[n+](Cc3cccc(F)c3)cc1C(N)=O)OC2 [13c]
Result: 6.02

Request: Supply measured IC50 of COc1cc2c(cc1OC)C(=O)/C(=C/c1cc[n+](Cc3ccc(C(F)(F)F)cc3)cc1C(C)=O)OC2 [10s] in your reply.
Result: 326

Request: Identify the reported IC50 for the following entry. COc1cc2c(cc1OC)C(=O)/C(=C/c1cc[n+](Cc3cccc(Cl)c3)cc1C(C)=O)OC2 [10f]
Result: 10.3

Request: # return recorded IC50 for input COc1cc2c(cc1OC)C(=O)/C(=C/c1cc[n+](Cc3ccccc3)cc1C(N)=O)OC2 [13a]
Result: 8.63

Request: Could you please provide reported IC50 for COc1cc2c(cc1OC)C(=O)/C(=C/c1cc[n+](Cc3cccc([N+](=O)[O-])c3)cc1C(C)=O)OC2 [10o] ? Thanks!
Result: 22.4

Request: Return the recorded IC50 value; entry: COc1cc2c(cc1OC)C(=O)/C(=C/c1cc[n+](Cc3ccccc3)cc1C(C)=O)OC2.[Br-] [10a]
Result: 1.61

* * *

- assay target: AChE enzyme from electrophorus electricus (eeAChE) (Electrophorus electricus, UniProt O42275)
Parameter pIC50: see the listing below.
Reminder that pIC50 is minus the log10 of a molar concentration.

compound: COc1cc2c(cc1OC)C(=O)/C(=C/c1cc[n+](Cc3ccccc3C)cc1C(N)=O)OC2 [13k]
pIC50: 7.92
//
compound: COc1cc2c(cc1OC)C(=O)/C(=C/c1cc[n+](Cc3ccc(Cl)cc3)cc1C(N)=O)OC2 [13g]
pIC50: 6.73
//
compound: COc1cc2c(cc1OC)C(=O)/C(=C/c1cc[n+](Cc3cccc(C(F)(F)F)c3)cc1C(C)=O)OC2 [10r]
pIC50: 7.60
//
compound: COc1cc2c(cc1OC)C(=O)/C(=C/c1cc[n+](Cc3cccc(C)c3)cc1C(C)=O)OC2 [10l]
pIC50: 8.18

Request: Please supply the value of reported pIC50 for the item COc1cc2c(cc1OC)C(=O)/C(=C/c1cc[n+](Cc3cccc(Br)c3)cc1C(C)=O)OC2 [10i]
Result: 7.96

Request: Consider the compound COc1cc2c(cc1OC)C(=O)/C(=C/c1cc[n+](Cc3ccccc3Cl)cc1C(N)=O)OC2 [13e] . State its measured pIC50.
Result: 7.75

Request: Report pIC50, nothing else, for this compound: COc1cc2c(cc1OC)C(=O)/C(=C/c1cc[n+](Cc3cccc(C(F)(F)F)c3)cc1C(N)=O)OC2 [13o]
Result: 7.37

Request: Return reported pIC50. Input compound: COc1cc2c(cc1OC)C(=O)/C(=C/c1cc[n+](Cc3cccc(C)c3)cc1C(N)=O)OC2 [13l]
Result: 7.79

Request: Quote pIC50 reported for COc1cc2c(cc1OC)C(=O)/C(=C/c1cc[n+](Cc3cccc(Br)c3)cc1C(N)=O)OC2 [13i] please.
Result: 7.42

Request: State, in one line, measured pIC50 of COc1cc2c(cc1OC)C(=O)/C(=C/c1cc[n+](Cc3ccccc3Cl)cc1C(C)=O)OC2 [10e]
Result: 8.23

Request: Could you please provide reported pIC50 for COc1cc2c(cc1OC)C(=O)/C(=C/c1cc[n+](Cc3ccc(Br)cc3)cc1C(N)=O)OC2 [13j] ? Thanks!
Result: 6.37

Request: Annotate the compound COc1cc2c(cc1OC)C(=O)/C(=C/c1cc[n+](Cc3ccc(Br)cc3)cc1C(C)=O)OC2 [10j] with its measured pIC50.
Result: 7.12

* * *

Entries below carry reported pIC50 on AChE enzyme from electrophorus electricus (eeAChE) (Electrophorus electricus).
Scale explanation: pIC50 corresponds to minus log10 of a concentration expressed in moles per litre.

Some compounds with known pIC50 results, for comparison:
compound: COc1cc2c(cc1OC)C(=O)/C(=C/c1cc[n+](Cc3ccc(C)cc3)cc1C(C)=O)OC2 [10m]
pIC50: 7.27
//
compound: COc1cc2c(cc1OC)C(=O)/C(=C/c1cc[n+](Cc3ccccc3F)cc1C(C)=O)OC2 [10b]
pIC50: 8.48
//
compound: COc1cc2c(cc1OC)C(=O)/C(=C/c1cc[n+](Cc3cccc(Cl)c3)cc1C(N)=O)OC2 [13f]
pIC50: 7.57
//
compound: COc1cc2c(cc1OC)C(=O)/C(=C/c1cc[n+](Cc3ccccc3Br)cc1C(C)=O)OC2 [10h]
pIC50: 8.21

Request: Look up AChE enzyme from electrophorus electricus (eeAChE) (Electrophorus electricus) data: pIC50 of COc1cc2c(cc1OC)C(=O)/C(=C/c1cc[n+](Cc3ccc([N+](=O)[O-])cc3)cc1C(C)=O)OC2 [10p] , then report it.
Result: 6.89
